All figures here come from paper PMC12135066.

- PROCEDURE SUMMARY: Biodistribution studies in HEK-uPAR xenograft-bearing nude mice
- CONDITION INFO: female, CD1/nude, mouse, heart, 5 MBq (0.5 nmol), total radioactivity, 4 h p.i.; 5 MBq, 0.5 nmol; decay-corrected; average ± SD, n=3 animals
I'd appreciate it if you could supply tissue uptake at 4 h values for the items below.
A number alone suffices; assume %ID/g.

Please fill in: tissue uptake at 4 h reported for CC(C)C[C@H](NC(=O)[C@H](Cc1ccc(O)cc1)NC(=O)[C@@H](CCCNC(=N)N)NC(=O)[C@@H](CO)NC(=O)[C@H](Cc1ccccc1)NC(=O)[C@H](CC1CCCCC1)NC(=O)[C@H](CC(=O)O)NC(=O)CN1CCN(CC(=O)O)CCN(CC(=O)O)CCN(CC(=O)O)CC1)C(=O)N[C@@H](Cc1c[nH]c2ccccc12)C(=O)N[C@@H](CO)C(N)=O [[^177Lu]Lu-DOTA-AE105, metal not drawn, reference compound] = 0.06

Please fill in: tissue uptake at 4 h reported for CC(C)C[C@H](NC(=O)[C@H](Cc1ccc(O)cc1)NC(=O)[C@@H](CCCNC(=N)N)NC(=O)[C@@H](CO)NC(=O)[C@H](Cc1ccccc1)NC(=O)[C@H](CC1CCCCC1)NC(=O)[C@H](CC(=O)O)NC(=O)[C@H](CCCCNC(=O)CCCc1ccc(I)cc1)NC(=O)[C@@H](N)CCCCNC(=O)CN1CCN(CC(=O)O)CCN(CC(=O)O)CCN(CC(=O)O)CC1)C(=O)N[C@@H](Cc1c[nH]c2ccccc12)C(=O)N[C@@H](CO)C(N)=O [[^177Lu]Lu-uPAR-04, metal not drawn] = 4.4

Please fill in: tissue uptake at 4 h reported for CC(C)C[C@H](NC(=O)[C@H](Cc1ccc(O)cc1)NC(=O)[C@@H](CCCNC(=N)N)NC(=O)[C@@H](CO)NC(=O)[C@H](Cc1ccccc1)NC(=O)[C@H](CC1CCCCC1)NC(=O)[C@H](CC(=O)O)NC(=O)[C@H](CCCCNC(=O)CCCc1ccc(I)cc1)NC(=O)CN1CCN(CC(=O)O)CCN(CC(=O)O)CCN(CC(=O)O)CC1)C(=O)N[C@@H](Cc1c[nH]c2ccccc12)C(=O)N[C@@H](CO)C(N)=O [[^177Lu]Lu-uPAR-01, metal not drawn] = 5.7

Please fill in: tissue uptake at 4 h reported for CC(C)C[C@H](NC(=O)[C@H](Cc1ccc(O)cc1)NC(=O)[C@@H](CCCNC(=N)N)NC(=O)[C@@H](CO)NC(=O)[C@H](Cc1ccccc1)NC(=O)[C@H](CC1CCCCC1)NC(=O)[C@H](CC(=O)O)NC(=O)CCOCCOCCOCCOCCNC(=O)[C@H](CCCCNC(=O)CCCc1ccc(I)cc1)NC(=O)CN1CCN(CC(=O)O)CCN(CC(=O)O)CCN(CC(=O)O)CC1)C(=O)N[C@@H](Cc1c[nH]c2ccccc12)C(=O)N[C@@H](CO)C(N)=O [[^177Lu]Lu-uPAR-05, metal not drawn] = 4.1
